test: determination of pKa of the sulfonamide group by UV-VIS spectra at various pH; format: physicochemical; conditions: at pH 7.0, calculated from pKa
Labelling field: enter rule met if recorded f RSO2NH-, fraction of deprotonated sulfonamide is less than 0.3%. Enter rule not met if it equals or exceeds that cut-off.

**Query** Dear reviewer, please state whether COC(=O)c1cc(S(N)(=O)=O)c(Cl)cc1S(=O)(=O)Cc1ccccc1 has f RSO2NH-, fraction of deprotonated sulfonamide strictly beneath 0.3%.
**Result** rule not met

**Query** Next compound up: COC(=O)c1cc(S(N)(=O)=O)c(S(=O)(=O)Cc2ccccc2)cc1Cl
**Result** rule met

**Query** Next compound up: COC(=O)c1cc(S(N)(=O)=O)c(Cl)cc1S(=O)(=O)CCc1ccccc1
**Result** rule not met

**Query** Next compound up: COC(=O)c1cc(S(N)(=O)=O)c(S(=O)(=O)CCc2ccccc2)cc1Cl
**Result** rule met

**Query** Next compound up: COC(=O)c1cc(S(N)(=O)=O)c(Br)cc1Sc1ccccc1
**Result** rule not met

**Query** Next compound up: COC(=O)c1cc(S(N)(=O)=O)c(Cl)cc1SCCc1ccccc1
**Result** rule not met

**Query** Next compound up: COC(=O)c1cc(S(N)(=O)=O)c(S(=O)(=O)C2CCCCC2)cc1Cl
**Result** rule met

**Query** Next compound up: COC(=O)c1cc(S(N)(=O)=O)c(Cl)cc1SC1CCCCC1
**Result** rule not met

**Query** Next compound up: COC(=O)c1cc(S(N)(=O)=O)c(Cl)cc1SCc1ccccc1
**Result** rule not met

**Query** Next compound up: COC(=O)c1cc(S(N)(=O)=O)c(Br)cc1Br [Compound 2, Methyl 2,4-dibromo-5-sulfamoyl-benzoate]
**Result** rule not met

---

biological target: CAXIV (Homo sapiens, UniProt Q9ULX7); assay: fluorescent thermal shift assay (FTSA), CAXIV; format: binding; settings: converted from Kd_intr, 37 °C, independent of pH
Sequence (Q9ULX7 16-337): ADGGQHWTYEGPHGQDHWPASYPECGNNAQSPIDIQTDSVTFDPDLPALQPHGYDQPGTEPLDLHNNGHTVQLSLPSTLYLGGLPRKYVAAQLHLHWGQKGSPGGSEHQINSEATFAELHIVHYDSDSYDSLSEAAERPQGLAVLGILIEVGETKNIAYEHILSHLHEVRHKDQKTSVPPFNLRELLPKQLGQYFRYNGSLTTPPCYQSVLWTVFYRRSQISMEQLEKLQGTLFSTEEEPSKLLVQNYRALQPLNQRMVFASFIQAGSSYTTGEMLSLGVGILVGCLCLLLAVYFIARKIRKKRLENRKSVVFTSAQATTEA
property name: ΔGintr CAXIV (kcal/mol)
Dear colleague, please return just the value in kcal/mol, with no unit written.

**Query** Need ΔGintr CAXIV, item COC(=O)c1cc(S(N)(=O)=O)c(Cl)cc1SCCc1ccccc1
**Result** -14.9

**Query** Next compound up: COC(=O)c1cc(S(N)(=O)=O)c(Cl)cc1SC1CCCCC1
**Result** -15.8

**Query** Next compound up: COC(=O)c1cc(S(N)(=O)=O)c(Cl)cc1S(=O)(=O)CCc1ccccc1
**Result** -15.2

**Query** Next compound up: COC(=O)c1cc(S(N)(=O)=O)c(Cl)cc1S(=O)(=O)Cc1ccccc1
**Result** -14.5

**Query** Next compound up: COC(=O)c1cc(S(N)(=O)=O)c(Cl)cc1Sc1cccc2ccccc12
**Result** -9.94

**Query** Next compound up: COC(=O)c1cc(S(N)(=O)=O)c(Br)cc1S(=O)(=O)c1ccccc1 [Compound 10a]
**Result** -14.9

**Query** Next compound up: COC(=O)c1cc(S(N)(=O)=O)c(SC2CCCCC2)cc1Cl
**Result** -15.5

**Query** Next compound up: COC(=O)c1cc(S(N)(=O)=O)c(Cl)cc1SCc1ccccc1
**Result** -14.4

**Query** Next compound up: COC(=O)c1cc(S(N)(=O)=O)c(Cl)cc1S(=O)(=O)c1cccc2ccccc12
**Result** -14.5

**Query** Next compound up: COC(=O)c1cc(S(N)(=O)=O)c(SCc2ccccc2)cc1Cl
**Result** -14.6

**Query** Next compound up: COC(=O)c1cc(S(N)(=O)=O)c(S(=O)(=O)C2CCCCC2)cc1Cl
**Result** -10.5

**Query** Next compound up: COC(=O)c1cc(S(N)(=O)=O)c(SCCc2ccccc2)cc1Cl
**Result** -14.7

**Query** Next compound up: COC(=O)c1cc(S(N)(=O)=O)c(SC2CCCCCCCCCCC2)cc1Cl
**Result** -14.8

**Query** Next compound up: COC(=O)c1cc(S(N)(=O)=O)c(Br)cc1Br [Compound 2, Methyl 2,4-dibromo-5-sulfamoyl-benzoate]
**Result** -13.6

---

biological target: CAXIV (Homo sapiens, UniProt Q9ULX7); experiment: fluorescent thermal shift assay (FTSA), CAXIV; type: binding; settings: converted from Kd_obs, 37 °C, pH 7.0, FTSA
property name: ΔGobs CAXIV (kJ/mol)
Dear colleague, please return just the value in kJ/mol, with no unit written.

**Query** Item: COC(=O)c1cc(S(N)(=O)=O)c(Br)cc1Br [Compound 2, Methyl 2,4-dibromo-5-sulfamoyl-benzoate] Test system: CAXIV (Homo sapiens, UniProt Q9ULX7) Read-out: ΔGobs CAXIV Value: ?
**Result** -43.9

**Query** Next molecule up: COC(=O)c1cc(S(N)(=O)=O)c(SC2CCCCCCCCCCC2)cc1Cl [Compound 3e]
**Result** -44.1

**Query** Next molecule up: COC(=O)c1cc(S(N)(=O)=O)c(Cl)cc1S(=O)(=O)C1CCCCC1 [Compound 9b]
**Result** -54.6

**Query** Next molecule up: COC(=O)c1cc(S(N)(=O)=O)c(Cl)cc1SCCc1ccccc1 [Compound 5d]
**Result** -46.1

**Query** Next molecule up: COC(=O)c1cc(S(N)(=O)=O)c(Cl)cc1SCc1ccccc1 [Compound 5c]
**Result** -43.5

**Query** Next molecule up: COC(=O)c1cc(S(N)(=O)=O)c(Cl)cc1Sc1cccc2ccccc12 [Compound 5f]
**Result** -24.9

**Query** Next molecule up: COC(=O)c1cc(S(N)(=O)=O)c(Cl)cc1Sc1ccccc1 [Compound 5a]
**Result** -45.8

**Query** Next molecule up: COC(=O)c1cc(S(N)(=O)=O)c(Cl)cc1S(=O)(=O)CCc1ccccc1 [Compound 9d]
**Result** -52.8

**Query** Next molecule up: COC(=O)c1cc(S(N)(=O)=O)c(Br)cc1S(=O)(=O)c1ccccc1 [Compound 10a]
**Result** -51.6

**Query** Next molecule up: COC(=O)c1cc(S(N)(=O)=O)c(S(=O)(=O)Cc2ccccc2)cc1Cl [Compound 7c]
**Result** -30.7

**Query** Next molecule up: COC(=O)c1cc(S(N)(=O)=O)c(Cl)cc1S(=O)(=O)Cc1ccccc1 [Compound 9c]
**Result** -51.0

**Query** Next molecule up: COC(=O)c1cc(S(N)(=O)=O)c(Cl)cc1S(=O)(=O)c1ccccc1 [Compound 9a]
**Result** -53.9

**Query** Next molecule up: COC(=O)c1cc(S(N)(=O)=O)c(SC2CCCCC2)cc1Br [Compound 4b]
**Result** -45.7

**Query** Next molecule up: COC(=O)c1cc(S(N)(=O)=O)c(SC2CCCCC2)cc1Cl [Compound 3b]
**Result** -46.9

---

biological target: CAXIV (Homo sapiens, UniProt Q9ULX7); assay: fluorescent thermal shift assay (FTSA), CAXIV; assay type: binding; details: converted from Kd_intr, 37 °C, independent of pH
property name: ΔGintr CAXIV (kcal/mol)
Dear colleague, please return just the value in kcal/mol, with no unit written.

**Query** Need ΔGintr CAXIV, item COC(=O)c1cc(S(N)(=O)=O)c(Cl)cc1S(=O)(=O)C1CCCCC1
**Result** -15.4

**Query** Next compound up: COC(=O)c1cc(S(N)(=O)=O)c(Cl)cc1Sc1ccccc1
**Result** -14.9

**Query** Next compound up: COC(=O)c1cc(S(N)(=O)=O)c(S(=O)(=O)Cc2ccccc2)cc1Cl
**Result** -11.9

**Query** Next compound up: COC(=O)c1cc(S(N)(=O)=O)c(Br)cc1Sc1ccccc1
**Result** -15.2

**Query** Next compound up: COC(=O)c1cc(S(N)(=O)=O)c(Cl)cc1Cl [Compound 1, Methyl 2,4-dichloro-5-sulfamoyl-benzoate]
**Result** -13.4

**Query** Next compound up: COC(=O)c1cc(S(N)(=O)=O)c(SC2CCCCC2)cc1Br
**Result** -15.2

---

target: UniProtKB Q16790; assay: fluorescent thermal shift assay (FTSA), CAIX; type: binding; conditions: pH 7
property name: ΔGobs CAIX (kcal/mol)
Dear colleague, please return just the value in kcal/mol, with no unit written.

**Query** Need ΔGobs CAIX, item COC(=O)c1cc(S(N)(=O)=O)c(Cl)cc1SCCc1ccccc1
**Result** -11.2

**Query** Next molecule up: COC(=O)c1cc(S(N)(=O)=O)c(SC2CCCCC2)cc1Cl
**Result** -13.5

**Query** Next molecule up: COC(=O)c1cc(S(N)(=O)=O)c(Cl)cc1S(=O)(=O)Cc1ccccc1
**Result** -12.2

**Query** Next molecule up: COC(=O)c1cc(S(N)(=O)=O)c(Cl)cc1SCc1ccccc1
**Result** -11.1

**Query** Next molecule up: COC(=O)c1cc(S(N)(=O)=O)c(Cl)cc1Sc1cccc2ccccc12
**Result** -10.9

Reference source: paper PMC8745178
